Biological target: SUMO-activating enzyme (Homo sapiens, UniProt Q9UBT2)
Sequence (Q9UBE0 whole entry): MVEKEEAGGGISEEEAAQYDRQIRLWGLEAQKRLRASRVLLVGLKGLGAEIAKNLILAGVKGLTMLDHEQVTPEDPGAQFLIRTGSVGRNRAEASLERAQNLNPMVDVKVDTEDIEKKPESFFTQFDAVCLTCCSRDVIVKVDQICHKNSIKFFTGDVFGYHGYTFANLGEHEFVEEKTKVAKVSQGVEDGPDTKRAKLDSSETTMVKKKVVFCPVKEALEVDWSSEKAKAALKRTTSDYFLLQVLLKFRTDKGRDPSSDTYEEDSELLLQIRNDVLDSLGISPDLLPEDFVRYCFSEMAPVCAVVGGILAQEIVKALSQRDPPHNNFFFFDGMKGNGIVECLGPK
Sequence (Q9UBT2 whole entry): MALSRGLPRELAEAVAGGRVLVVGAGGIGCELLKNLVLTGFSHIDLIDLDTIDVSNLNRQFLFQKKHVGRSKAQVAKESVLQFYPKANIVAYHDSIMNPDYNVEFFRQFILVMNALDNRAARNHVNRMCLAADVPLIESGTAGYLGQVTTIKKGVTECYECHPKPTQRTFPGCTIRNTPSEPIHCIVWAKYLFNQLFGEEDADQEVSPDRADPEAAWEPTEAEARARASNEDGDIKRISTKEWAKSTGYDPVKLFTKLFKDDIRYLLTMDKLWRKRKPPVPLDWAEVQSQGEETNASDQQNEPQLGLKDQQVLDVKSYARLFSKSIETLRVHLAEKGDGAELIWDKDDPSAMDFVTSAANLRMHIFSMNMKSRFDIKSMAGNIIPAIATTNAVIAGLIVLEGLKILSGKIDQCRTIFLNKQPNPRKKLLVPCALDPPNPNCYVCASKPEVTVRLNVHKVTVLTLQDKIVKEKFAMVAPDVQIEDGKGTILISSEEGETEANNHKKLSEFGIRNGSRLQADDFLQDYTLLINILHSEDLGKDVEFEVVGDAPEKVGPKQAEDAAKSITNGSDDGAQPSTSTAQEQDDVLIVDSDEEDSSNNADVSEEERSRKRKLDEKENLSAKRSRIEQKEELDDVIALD
Assay: Inhibition of SAE (unknown origin) using recombinant His-tagged human SUMO1 measured after 2 hrs by HTRF assay
Listed molecules paired with reported log10(IC50)
Quick note: numbers are log10 of IC50, with nM as the unit.

Sample records with log10(IC50):
# input Give its log10(IC50) value. Item: COc1cccc(Cn2cc(C(=O)c3cncnc3N[C@@H]3C[C@H](COS(N)(=O)=O)[C@@H](O)[C@H]3O)c3ccccc32)c1
# output 1.60

# input What do you have for NS(=O)(=O)OC[C@H]1C[C@@H](Nc2ncncc2C(=O)c2cn(Cc3ccccc3)c3ccccc23)C[C@@H]1O ?
# output 2.75

# input Next: Cc1cc(Cn2cc(C(=O)c3cncnc3N[C@@H]3C[C@H](COS(N)(=O)=O)[C@@H](O)[C@H]3O)c3cc(F)ccc32)ccc1F
# output 3.24

# input Could you do the same for NS(=O)(=O)OC[C@H]1C[C@@H](Nc2ncncc2C(=O)c2cn(Cc3ccccc3F)c3ccccc23)[C@H](O)[C@@H]1O , please?
# output 3.46

Continuing:
# input # get_value(readout='log10(IC50)', item= Cc1cccc(Cn2cc(C(=O)c3cncnc3N[C@@H]3C[C@H](COS(N)(=O)=O)[C@@H](O)[C@H]3O)c3ccccc32)n1 )
# output 3.34

# input Next entry: NS(=O)(=O)OC[C@H]1C[C@@H](Nc2ncncc2C(=O)c2cn(CC3CCCCC3)c3ccccc23)[C@H](O)[C@@H]1O
# output 3.22

Attribution: ChEMBL document CHEMBL4482323
